test system: B. thailandensis ATCC 700388; test: microbe, parasite or virus in culture; type: cell-based; conditions: Burkholderia thailandensis, ATCC700388, read-out: Minimum inhibitory concentration (MIC), B. thailandensis ATCC 700388

compound	MIC
O=C(NCCN1CCN(C(=O)NC(C(=O)N[C@H]2Cc3ccc(F)c(C(=O)O)c3OB2O)c2cc(F)c(O)c(O)c2Cl)C1=O)c1ccccc1 (stereo partly drawn)	2 to 4 µg/mL
O=C(NCCCN1CCN(C(=O)NC(C(=O)N[C@H]2Cc3ccc(F)c(C(=O)O)c3OB2O)c2cc(F)c(O)c(O)c2Cl)C(=O)C1=O)c1cccc(O)c1 (stereo partly drawn)	2 to 4 µg/mL
NCc1cc(O)cc(C(=O)N2CCC(N3CCN(C(=O)N[C@@H](C(=O)N[C@H]4Cc5ccc(F)c(C(=O)O)c5OB4O)c4cc(F)c(O)c(O)c4Cl)C3=O)CC2)c1 (single isomer, unassigned)	< 1 µg/mL

###

target: UniProt A0ABX6CK25
Sequence (A0ABX6CK25 64-610): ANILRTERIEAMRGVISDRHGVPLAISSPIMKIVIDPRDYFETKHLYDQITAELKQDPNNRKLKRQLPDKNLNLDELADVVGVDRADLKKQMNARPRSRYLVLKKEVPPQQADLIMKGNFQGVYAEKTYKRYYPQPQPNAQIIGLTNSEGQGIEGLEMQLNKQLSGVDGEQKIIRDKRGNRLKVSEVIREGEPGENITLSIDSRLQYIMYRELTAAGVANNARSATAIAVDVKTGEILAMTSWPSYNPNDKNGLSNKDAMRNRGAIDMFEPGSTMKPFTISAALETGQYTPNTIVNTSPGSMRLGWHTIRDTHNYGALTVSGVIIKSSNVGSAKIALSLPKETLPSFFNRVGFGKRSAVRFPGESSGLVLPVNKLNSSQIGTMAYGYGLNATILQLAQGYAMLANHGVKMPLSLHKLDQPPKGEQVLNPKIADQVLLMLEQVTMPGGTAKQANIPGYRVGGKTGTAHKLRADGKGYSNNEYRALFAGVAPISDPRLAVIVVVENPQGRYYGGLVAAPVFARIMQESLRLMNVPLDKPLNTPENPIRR
Entries and their IC50 values follow.
measure name: IC50

molecule	reported
O=C(NCCCS(=O)(=O)N1CCN(C(=O)N[C@@H](C(=O)N[C@H]2Cc3ccc(F)c(C(=O)O)c3OB2O)c2cc(F)c(O)c(O)c2Cl)C1=O)c1cccc(O)c1 [Example 271]	< 10 µM
O=C(NCCCN1CCN(C(=O)NC(C(=O)N[C@H]2Cc3ccc(F)c(C(=O)O)c3OB2O)c2cc(F)c(O)c(O)c2Cl)C(=O)C1=O)c1ccc(F)c(O)c1F (some centres unmarked) [Example 411]	< 10 µM
O=C(NCCN1CCN(C(=O)NC(C(=O)N[C@H]2Cc3ccc(F)c(C(=O)O)c3OB2O)c2cc(F)c(O)c(O)c2Cl)C1=O)c1ccc(O)cc1 (some centres unmarked) [Example 243]	< 10 µM
O=C(O)c1c(F)ccc2c1OB(O)[C@@H](NC(=O)C(NC(=O)N1CCN(C3CCN(C(=O)c4cncc(O)c4)CC3)C(=O)C1=O)c1cc(F)c(O)c(O)c1Cl)C2 (some centres unmarked) [Example 425]	< 10 µM
O=C(NCCCN1CCN(C(=O)N[C@@H](C(=O)N[C@H]2Cc3ccc(F)c(C(=O)O)c3OB2O)c2cc(F)c(O)c(O)c2Cl)C1=O)Nc1ccc(O)cc1 [Example 284]	< 10 µM
CN(CCN1CCN(C(=O)N[C@@H](C(=O)N[C@H]2Cc3ccc(F)c(C(=O)O)c3OB2O)c2cc(F)c(O)c(O)c2Cl)C(=O)C1=O)Cc1ccc(C(N)=O)cc1 [Example 226]	< 10 µM
O=C(O)c1c(F)ccc2c1OB(O)[C@@H](NC(=O)C(NC(=O)N1CCN(Cc3cc(F)c(O)c(O)c3Cl)C(=O)C1=O)c1ccc(P(=O)(O)O)cc1)C2 (some centres unmarked) [Example 45]	< 10 µM
CN(CCN1CCN(C(=O)NC(C(=O)N[C@H]2Cc3ccc(F)c(C(=O)O)c3OB2O)c2cc(F)c(O)c(O)c2Cl)C(=O)C1=O)S(=O)(=O)c1cccc(C(N)=O)c1 (some centres unmarked) [Example 224]	< 10 µM
O=C(NCCS(=O)(=O)N1CCN(C(=O)N[C@H](C(=O)N[C@H]2Cc3ccc(F)c(C(=O)O)c3OB2O)c2cc(F)c(O)c(O)c2Cl)C1=O)c1ccc(O)cc1 [Example 286]	50 to 250 µM
CN(CCN1CCN(C(=O)N[C@@H](C(=O)N[C@H]2Cc3ccc(F)c(C(=O)O)c3OB2O)c2cc(F)c(O)c(O)c2Cl)C(=O)C1=O)Cc1cccc(C(N)=O)c1 [Example 225]	< 10 µM
Cc1cc(C(=O)NCCCN2CCN(C(=O)NC(C(=O)N[C@H]3Cc4ccc(F)c(C(=O)O)c4OB3O)c3cc(F)c(O)c(O)c3Cl)C(=O)C2=O)c(F)cn1 (some centres unmarked) [Example 301]	< 10 µM
